- Tgt: Phosphoethanolamine/phosphocholine phosphatase (Homo sapiens)
- Run Description: PubChem AID 1565
- Experimental Conditions: recombinant PHOSPHO1, absorbance phosphatase assay; at 13.3 µM
In all, about 290,000 compounds went through this assay and about 3,200 (1.1%) were called active. No stated cut-off is given here; in the data, active means inhibition above about 60%; inactive means the rest. Only a selection was taken, and actives are over-represented in it overall.
Write down the outcome that applies. Available outcomes: yes (1) (active), no (0) (inactive)

These solved cases illustrate the format of a correct answer.
Compound String	Assigned Category
CCc1ccc(NC(=O)C(=O)NNC(=O)c2cccs2)cc1	no (0)
Cn1c(SCC(=O)N2CCCC2)nnc1-c1ccc2c(c1)OCO2	no (0)
CC(=O)c1ccc(N2CCN(C(=O)CCNC(=O)Cn3ccc4ccccc4c3=O)CC2)cc1	no (0)
CCOC(=O)CSc1nnc(-c2ccco2)n1C	no (0)
O=C(CSc1nnc(-c2cccs2)n1-c1ccccc1)NCc1ccco1	no (0)
O=C(NC1CCCC1)C(=O)c1c[nH]c2ccccc12	yes (1)
Cn1c(SCC(=O)N2CCCC2)nnc1-c1cccs1	yes (1)
CCn1c(SCC(=O)c2ccc(Cl)s2)nnc1-c1cccs1	no (0)
Cc1cc(C)c(C#N)c(N2CCC(C(N)=O)CC2)n1	no (0)
O=C(CSc1nnc(-c2cccs2)n1-c1ccccc1)N1CCN(C(=O)c2ccco2)CC1	yes (1)

Entry Cc1cccc(N(C)C(=O)c2cc(S(=O)(=O)N3CCCCC3)c[nH]2)c1 : call = ? no (0)
